- assay-info: Absorption spectra (absorption maxima) of dyes in organic solvents
- Format: physicochemical
- settings: EtOH
quantity-kind: λabs (maximum absorption) (nm)

compound	units	λabs (maximum absorption)
CC(=O)c1c2c(cc3ccc(N(C)C)cc13)CCC2	nm	377
CC(=O)c1c2c(cc3cc(N(C)C)ccc13)CCC2	nm	374
CCC(=O)c1ccc2cc(N(C)C)ccc2c1 [Prodan, reference compound]	nm	362
CC(=O)c1c2c(cc3c(N(C)C)cccc13)CCC2	nm	334

Reference for the values: patent US9896479B2
